- PROTOCOL: soluble on expression in E. coli; label from the status in PepcDB or PDB records

- ENTRY_SEQUENCE: "MAHHHHHHMVTLNSTKPQVVIEASGVPTIQTSSITSPVVLTTPLGKSMYSSYSYSNPVSSSYSSSHHNECEYNWERVSTKPSQSTQHGEYMKTFEVPTGLYYETLPLKRNTNNIFEVTPSKEELEKINYNPRIEVYSTCNFVIIMMDLPGVSKENLKVELENGVLKIFGHKYKVPLEELQTEHEYHTKIIERVGEYYFCKMFQMPPVFSDGQSISCTLRDGELTFKMLASDLRAQKRVVEVQS"
  soluble on expression in E. coli: "not soluble"
- ENTRY_SEQUENCE: "MRTLFIGDLHLSADRLDITQAFNRFLDTELDDADALYILGDLFEVWVGDDLAAPFALELAHKLKQVSQTLPIFFIHGNRDFMLGKRFAEAAGMQLLPEVTCIELYGVKTVILHGDSLCTLDKAYQRFRKLRSFACARWLYSCLPKKRRQAIANKIRSNSQSSNQQKSYVIMDVEPSAVNALFVKTHTTRMIHGHTHRPAIHIVDNACQRIVVGDWYEQGSVLSVSANGVDLKSLPFETTLEHHHHHH"
  soluble on expression in E. coli: "not soluble"

----------
- PROTOCOL: soluble on expression in E. coli; label from the status in PepcDB or PDB records

- ENTRY_SEQUENCE: "MNASSRTKPAIDLNKVPPIDHHRTAVTFNCLIMKMTEMLNNFGNKMEDILEKAEQSLDTADRKLRLMESKLAGMSLEDKSTTATPSSAPEIDEIHESNPSSSQIVEETVEEKPEEHTTTVLIKDDPAYSKYFKMLKLGVLEAGVIQKMKSEGVDPSILKRGDEPSRPQAQTSRNYESSGESTASFSDSD"
  soluble on expression in E. coli: "not soluble"
- ENTRY_SEQUENCE: "VACMIPAPAYHPDPRFQALGGEFADPVEPADFPETVLRFRNDRAAATVGLETLDDRAWLRHFGRFEPLPDNQTRPLAMRYHGHQFRVYNPDLGDGRGFLFGQLREAGTGRLLDLATKGSGQTPWSRAGDGRLTLKGGVREILAASFLEALGVPTSRWCGL"
  soluble on expression in E. coli: "soluble"
- ENTRY_SEQUENCE: "MGSDKIHHHHHHMLPLDSLSDCASKSYLLTHLPDLNHRHLSSSVSTNSELIAAVQDGTLNATAMHLLTAETQSAGRGQHGRSWQSPRGNVYLSLYHPVHIPISGLLSLIIGVELAKMPIIQTLNDQLCAQGLTPIGVKWANDLGFYSYQYHHQSELHKILLANEMTPFHKLAGILIEPVTQAGKLVGIVMGVGLNVQATPKLTAQTCEGMSYQAISLQDIKQLLEPDKSASALLSLRELYQQMSKALMAAMTRFEHLGLEKPTGQTYNLDSFLKQFDSMDALAGLRLRITQEHNGQTETLTGYACGIDTHGCLQLRQDNGNISALFTGRIDVIDNA"
  soluble on expression in E. coli: "not soluble"
- ENTRY_SEQUENCE: "MNVTSGMDQILAQLKATSDLAAGGSKPSATVSTVSQADFGQLLKSAVDQVNTVQQTASQLSREFVGGNQDVELHDVMISLQKANVSFQSMIQVRNRLVTAYQEIMNMQV"
  soluble on expression in E. coli: "not soluble"
- ENTRY_SEQUENCE: "MAIIEEIFEDEEDQITKVDSLKKEGNNFFANGEFEKANEKYQEAIASCPPTSTEVQSILLSNSAAALIKLRKWESAVEAASKSIEIGATNEKALERRAFAYSNMSEKYENSIEDYKQLQESLPKRRVELDRKIAEINEKINNRNEAMKADVMEKLKGFGNFCLSPFGLSTDSFEMVPNGNGGFSVQMKGATNKQEGASQEKKEEENA"
  soluble on expression in E. coli: "soluble"
- ENTRY_SEQUENCE: "MSPPDLEDEPFMENQDVAGENDLFVLDGRQDPPNLPQNHLEEVVGEIVENLERWHFAEILADGAEIHEDIIEDVGGDEVEEEEVDIDWVSPLSKEYSKPFSKS"
  soluble on expression in E. coli: "not soluble"
- ENTRY_SEQUENCE: "MSLRPTMADVAREAGVSLSTVDRVLNLRADVRTDTAQRIAAAAALLGFHAKGVIEQRILNDKPTVRLGFLLQKSGVAFYKGLAQALSNAAATFTRARVQVVIGYLDDLDPATVAQRLLALGDQVDGVGMVAVDHPRVRDAVASLQVAGVPVVALISELAGLGSASYVGVDNRLMGRTAGWFVTRLAGSPGSAAVMVSSQRFQCQELCEMSFRSYLSSHSTDWELLASRLTLEDDDFAYGNALDLLSGEPELSALYVAGGGVAGVLRALRELQQQQIRLPVVVCHDLTPLTREALKADLVQVVLSHPIVQVAEQTVRALVAASSDLTRVARVTVPIQVDVSESIAEGHHHHHH"
  soluble on expression in E. coli: "soluble"
- ENTRY_SEQUENCE: "MSKEPRIKILNGQTVQVRKEDHTIMNPLRWCIGKNFTGEKVELVGYTIPHPSDDISNITIQLCDESLQTPPNLLKKLVEGLECMEAIGAKIASEIERSKGGFNK"
  soluble on expression in E. coli: "not soluble"
- ENTRY_SEQUENCE: "MGSDKIHHHHHHMSDNLPKKQPRTAPPEARREQLIDATITAISTYGLSGTTLAKVTAEAGLSLGLVNFHFKSKEALLTATLTHLADEHRALWFTRSSQPDVSAADKLKLIVDAQFHAKICNRRKLSVWFAFFGESRPRKAYRELTGPLDEERQIATSRLCADIIAEGGYSGIDSDTVSAMLESLFDGFWLNILMYPDRFTRQSAKAQVLSYLRLCFPQHFTCLDAETFA"
  soluble on expression in E. coli: "not soluble"
- ENTRY_SEQUENCE: "DDSLGEAVTTRAEALTIPAVLRARNLLSTTVARTPLVCDGTLPPFVPVAAPPGAATMQTPFHRMLATADDLLFNGVACWALDRDESGTCIGAIHIPLDTWQIEENTVRVNGKAVDPMEVCIFVGIHGGLLTHASETFTDARNLVRAAARVAQNPAALIELRQTNNAQLSPDDVDRIINGYVAARRGRNSGVGFSSSGLEVHEHEMAKENLLIEGRNAAAVDVARAMNVPAAFIDATVGGTSLSYQNAASRMIELVTFGVEPLMSAIEARLNQPDMHADHLANPLKFDPAALLDAIPTTPTIGAQPHGENS"
  soluble on expression in E. coli: "soluble"
- ENTRY_SEQUENCE: "MQPIEFLEGGCLCGAIRYRIEGNPFDADYCHCRMCQKSIGAAFGAWMDFNVSQVTWLKGNVTEFASSDFVRRGFCAQCGCSLTYRHTEYPDYLTLTIASFDDPNLVQPNYHIYTEQQLSWLKIEDNCQRYPQARTK"
  soluble on expression in E. coli: "soluble"
- ENTRY_SEQUENCE: "MDVVKEIMAAIKQYETIIIHRHQRPDPDAIGSQVGLAELLRASFPEKNIYQVGGPVEGLEFLAEMDVITDDVYRGALVIVTDTANAPRISDARFSLGDQLIKIDHHPNDEPYGDLVWVNTNASSCSEIIVDFWQQHLAELTMTDNAARLLYAGIVGDTGRFLYPSTSAHTLAVAAQLRTFNFNAADLNRELDQMPLKVAKLAGYIYQNLEIDANGAARVVLPQSILNSYDIVDSETAAIVSMPGKIEDVLSWAIFVEQPEGYYRVRLRSKGPIINTIAKKHHGGGHPLASGANARDAAEIEVIYQEIQAACQEWAQK"
  soluble on expression in E. coli: "not soluble"
- ENTRY_SEQUENCE: "GPGSMAHCCFLIYPLAKVADESFLQLLFDDSVKRSAFLGYPPRRFAIVELEESQNEAVLRAIGARDDDGRVEAREDNADTPFVDLFTRTGAKKGTDRNEPIGLRMGCIPHLSQVRFRRTYLRVIVSPVTIDELFGCVQKDSNHVKKEKRSLKRSRHTDEDAGPWVPRWPVANGDPTLAGRVEVVSMTGASRAGLSGDPEDERYREPYAECSGGPVCNMSPPKTFLSDDSAGDAAGRRALDVSVQNLIRELGFDK"
  soluble on expression in E. coli: "not soluble"

----------
- PROTOCOL: soluble on expression in E. coli; label from the status in PepcDB or PDB records

- ENTRY_SEQUENCE: "MKSKFEASIDNLKEIEMNAYAYELIREIVLPDMLGQDYSSMMYWAGKHLARKFPLESWEEFPAFFEEAGWGTLTNVSAKKQELEFELEGPIISNRLKHQKEPCFQLEAGFIAEQIQLMNDQIAESYEQVKKRADKVVLTVKWDMKDPVMAGDPLEHHHHHH"
  soluble on expression in E. coli: "soluble"
- ENTRY_SEQUENCE: "MGWCVMAVLVDSETRVLVQGITGREGSFHAKAMLEYGTKVVAGVTPGKGGSEVHGVPVYDSVKEALAEHPEINTSIVFVPAPFAPDAVYEAVDAGIRLVVVITEGIPVHDTMRFVNYARQKGATIIGPNCPGAITPGQAKVGIMPGHIFKEGGVAVVSRSGTLTYEISYMLTRQGIGQSTVIGIGGDPIVGLSFTEALKLFQEDPQTEALVLIGEIGGDMEERAAEMIKKGEFTKPVIAYIAGRTAPPEKRMGHAGAIIMMGTGTYEGKVKALREAGVEVAETPFEVPELVRKALRR"
  soluble on expression in E. coli: "soluble"
